Kindly supply the reported Kd values for the records listed here.
Biological target: T1, c-erbB-2 ECD with a Ser-Gly-His6 C-terminal fusion (UniProt P04626 23-652)
T1 construct: extracellular domain; Expressed from CHO cells, IMAC purified; coupled to a CM5 chip, coated on plates, or biotinylated with NHS-LC-biotin; also called c-erbB-2 extracellular domain; biotinylated c-erbB-2 ECD
Assay: SPR BIAcore
Give bare numbers, in nM.

These recorded examples may help you get a feel for the data.
C6.5P100iA (scFv, C6.5 VH CDR3 scan mutant; Kabat numbering) scFv: QVQLLQSGAELKKPGESLKISCKGSGYSFTSYWIAWVRQMPGKGLEYMGLIYPGDSDTKYSPSFQGQVTISVDKSVSTAYLQWSSLKPSDSAVYFCARHDVGYCSSSNCAKWAEYFQHWGQGTLVTVSSGGGGSGGGGSGGGGSQSVLTQPPSVSAAPGQKVTISCSGSSSNIGNNYVSWYQQLPGTAPKLLIYGHTNRPAGVPDRFSGSKSGTSASLAISGFRSEDEADYYCAAWDDSLSGWVFGGGTKLTVLG | 10
C6.5Q101A (scFv, C6.5 VH CDR3 scan mutant; Kabat numbering) scFv: QVQLLQSGAELKKPGESLKISCKGSGYSFTSYWIAWVRQMPGKGLEYMGLIYPGDSDTKYSPSFQGQVTISVDKSVSTAYLQWSSLKPSDSAVYFCARHDVGYCSSSNCAKWPEYFAHWGQGTLVTVSSGGGGSGGGGSGGGGSQSVLTQPPSVSAAPGQKVTISCSGSSSNIGNNYVSWYQQLPGTAPKLLIYGHTNRPAGVPDRFSGSKSGTSASLAISGFRSEDEADYYCAAWDDSLSGWVFGGGTKLTVLG | 8.2

[Q] Dear colleague, please send me the reported Kd for C6.5C100S/C100eS (scFv, C6.5 VH CDR3 scan mutant; Kabat numbering) scFv: QVQLLQSGAELKKPGESLKISCKGSGYSFTSYWIAWVRQMPGKGLEYMGLIYPGDSDTKYSPSFQGQVTISVDKSVSTAYLQWSSLKPSDSAVYFCARHDVGYSSSSNSAKWPEYFQHWGQGTLVTVSSGGGGSGGGGSGGGGSQSVLTQPPSVSAAPGQKVTISCSGSSSNIGNNYVSWYQQLPGTAPKLLIYGHTNRPAGVPDRFSGSKSGTSASLAISGFRSEDEADYYCAAWDDSLSGWVFGGGTKLTVLG when you can.
[A] 280
